Measured values drawn from patent US11008403 for this set.

The reader will find reported EC50 values listed item by item below.
- subject-of-test: human TfR ECD (human)
- Sequence (chain, as listed by the source): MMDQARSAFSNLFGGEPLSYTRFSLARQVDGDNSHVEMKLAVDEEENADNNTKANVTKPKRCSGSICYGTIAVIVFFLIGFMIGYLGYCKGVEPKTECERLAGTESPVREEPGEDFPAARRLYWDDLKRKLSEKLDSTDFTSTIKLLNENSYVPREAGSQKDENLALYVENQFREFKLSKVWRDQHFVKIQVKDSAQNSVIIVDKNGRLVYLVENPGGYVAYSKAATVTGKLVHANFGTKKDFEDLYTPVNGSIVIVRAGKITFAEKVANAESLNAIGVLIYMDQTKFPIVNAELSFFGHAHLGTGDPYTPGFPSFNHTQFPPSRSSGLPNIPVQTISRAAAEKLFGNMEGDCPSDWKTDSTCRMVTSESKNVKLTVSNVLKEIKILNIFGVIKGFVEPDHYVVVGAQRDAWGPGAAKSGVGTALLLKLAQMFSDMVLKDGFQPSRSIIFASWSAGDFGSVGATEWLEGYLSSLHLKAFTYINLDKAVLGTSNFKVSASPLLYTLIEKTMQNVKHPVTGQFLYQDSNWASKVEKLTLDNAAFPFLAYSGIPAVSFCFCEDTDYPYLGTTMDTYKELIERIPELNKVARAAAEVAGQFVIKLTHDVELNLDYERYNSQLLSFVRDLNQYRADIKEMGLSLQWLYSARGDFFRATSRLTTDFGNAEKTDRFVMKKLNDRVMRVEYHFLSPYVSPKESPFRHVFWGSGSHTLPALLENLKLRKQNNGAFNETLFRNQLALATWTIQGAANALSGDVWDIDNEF
- measurement-notes: ELISA
Note: unit ng/mL is implicit; provide only the numeric part.

stdin: Given the entry hu15G11.v5 LC L33A (antibody, V domains shown) VH: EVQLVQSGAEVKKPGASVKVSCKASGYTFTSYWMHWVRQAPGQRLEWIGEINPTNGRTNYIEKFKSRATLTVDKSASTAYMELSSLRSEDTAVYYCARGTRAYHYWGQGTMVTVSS VL: DIQMTQSPSSLSASVGDRVTITCRASDNLYSNAAWYQQKPGKSPKLLVYDATNLADGVPSRFSGSGSGTDYTLTISSLQPEDFATYYCQHFWGTPLTFGQGTKVEIK , report its measured EC50.
stdout: 0.05

stdin: And the next one, hu15G11.v5 HC T53A (antibody, V domains shown) VH: EVQLVQSGAEVKKPGASVKVSCKASGYTFTSYWMHWVRQAPGQRLEWIGEINPANGRTNYIEKFKSRATLTVDKSASTAYMELSSLRSEDTAVYYCARGTRAYHYWGQGTMVTVSS VL: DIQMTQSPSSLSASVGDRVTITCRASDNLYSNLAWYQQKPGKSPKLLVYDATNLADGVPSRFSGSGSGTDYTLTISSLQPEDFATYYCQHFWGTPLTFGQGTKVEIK ?
stdout: 0.3

stdin: And the next one, hu15G11.v5 LC R24A (antibody, V domains shown) VH: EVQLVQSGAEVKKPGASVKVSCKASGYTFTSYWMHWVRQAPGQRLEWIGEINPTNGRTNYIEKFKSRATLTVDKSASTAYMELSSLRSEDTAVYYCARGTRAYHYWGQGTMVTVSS VL: DIQMTQSPSSLSASVGDRVTITCAASDNLYSNLAWYQQKPGKSPKLLVYDATNLADGVPSRFSGSGSGTDYTLTISSLQPEDFATYYCQHFWGTPLTFGQGTKVEIK ?
stdout: 0.1

stdin: And the next one, hu15G11.v5 HC S31A (antibody, V domains shown) VH: EVQLVQSGAEVKKPGASVKVSCKASGYTFTAYWMHWVRQAPGQRLEWIGEINPTNGRTNYIEKFKSRATLTVDKSASTAYMELSSLRSEDTAVYYCARGTRAYHYWGQGTMVTVSS VL: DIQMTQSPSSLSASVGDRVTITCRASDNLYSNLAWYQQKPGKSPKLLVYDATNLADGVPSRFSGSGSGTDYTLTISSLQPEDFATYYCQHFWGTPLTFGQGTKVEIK ?
stdout: 0.05
